biological target: PIK3CG (human)
pIC50: −log10 of the molar value.
Item-by-item account of pIC50

| STRUCTURE_AS_SMILES | pIC50 |
| --- | --- |
| C[C@H](NC(=O)c1c(N)nn2cccnc12)c1cc2cccc(C#CC3CNC3)c2c(=O)n1-c1ccccc1 | 6.00 to 6.30 |

Answer briefly: pIC50 recorded on PIK3CG (human) for `C[C@H](NC(=O)c1c(N)nn2cccnc12)c1cc2cccc(C#Cc3cnn(C)c3)c2c(=O)n1C1CCCCC1` 5.30 to 6.00

Answer briefly: pIC50 recorded on PIK3CG (human) for `Cc1scnc1C#Cc1cccc2cc([C@H](C)NC(=O)c3c(N)nn4cccnc34)n(-c3ccccc3)c(=O)c12` 6.30 to 7.00
